Quick list: IC50 per entry.
Test system: 134 cancer cell lines
Assay Procedure: Cell viability assay (ATPlite, 72 hours), IC50 on cancer cell line panel
Recorded Conditions: Homo sapiens, NCI-H2228, read-out: IC50 in cell proliferation assay, NCI-H2228 cell line (EML4-ALK)
Write down the numeric answer in nM and omit the unit.

The cases that follow already have their IC50 on record.
Query: Value wanted: IC50 (134 cancer cell lines) of entry COC(=O)N[C@@H](C)CNc1nccc(-c2cn(C(C)C)nc2-c2cc(Cl)cc(NS(C)(=O)=O)c2F)n1 [encorafenib]
Result: 2300

Query: What do we get for O=C(c1ccc(F)c(F)c1Nc1ccc(I)cc1F)N1CC(O)([C@@H]2CCCCN2)C1 [cobimetinib] ?
Result: 721

# ---- query molecule ----
Query: Provide the documented IC50 with 134 cancer cell lines as the system for CC(=O)Nc1cccc(-n2c(=O)n(C3CC3)c(=O)c3c(Nc4ccc(I)cc4F)n(C)c(=O)c(C)c32)c1 [trametinib]
Result: 265

----------
System: 134 cancer cell lines
Assay Procedure: Cell viability assay (ATPlite, 72 hours), IC50 on cancer cell line panel
Recorded Conditions: Homo sapiens, HCT-15, read-out: IC50 in cell proliferation assay
Readout Kind: IC50

Query: Which IC50 is reported with 134 cancer cell lines for this entry: CCc1cc2c(cc1N1CCC(N3CCOCC3)CC1)C(C)(C)c1[nH]c3cc(C#N)ccc3c1C2=O ?
Result: > 10 µM

----------
inhibition at 1 µM values by entry
Test System: panel of 255 wild-type kinases (Homo sapiens, UniProt P53350)
Sequence (P53350 whole entry): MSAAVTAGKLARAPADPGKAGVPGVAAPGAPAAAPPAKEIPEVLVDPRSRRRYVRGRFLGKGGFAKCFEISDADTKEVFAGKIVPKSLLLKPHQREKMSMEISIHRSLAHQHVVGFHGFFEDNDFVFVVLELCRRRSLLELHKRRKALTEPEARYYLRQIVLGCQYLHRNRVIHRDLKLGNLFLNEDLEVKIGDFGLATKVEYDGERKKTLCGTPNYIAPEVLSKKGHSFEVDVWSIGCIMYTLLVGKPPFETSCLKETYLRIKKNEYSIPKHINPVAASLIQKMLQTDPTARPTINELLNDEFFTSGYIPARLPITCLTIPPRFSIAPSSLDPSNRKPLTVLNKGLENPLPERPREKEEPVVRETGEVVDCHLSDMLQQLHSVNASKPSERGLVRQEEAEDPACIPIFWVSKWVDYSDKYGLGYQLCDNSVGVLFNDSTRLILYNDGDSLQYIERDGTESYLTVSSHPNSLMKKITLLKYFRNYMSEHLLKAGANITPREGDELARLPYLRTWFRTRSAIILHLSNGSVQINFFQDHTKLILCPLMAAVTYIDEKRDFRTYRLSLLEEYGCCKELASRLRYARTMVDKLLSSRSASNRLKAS
Assay Procedure: Kinase panel profiling at 1 µmol/L (MSA or IMAP), percentage inhibition
Type: biochemical
Recorded Conditions: kinase PLK1; 1 µmol/L single concentration; read-out: %-inhibition at 1 µmol/L, PLK1
Unit % implied. Number only.

Past entries and their recorded results:
Query: Which inhibition at 1 µM value is on record for Cc1cc(Nc2ncnc3ccc(NC4=NC(C)(C)CO4)cc23)ccc1Oc1ccn2ncnc2c1 [tucatinib] ?
Result: -3.69

Query: What about this compound? CCn1c(=O)c(-c2cc(NC(=O)Nc3ccccc3)c(F)cc2Br)cc2cnc(NC)cc21 [ripretinib]
Result: 4

Query: Now this one: COc1cc2ncnc(Nc3ccc(F)c(Cl)c3)c2cc1NC(=O)/C=C/CN1CCCCC1 [dacomitinib]
Result: 3.78

***
Query: Please report the recorded inhibition at 1 µM for COC(=O)N[C@@H](C)CNc1nccc(-c2cn(C(C)C)nc2-c2cc(Cl)cc(NS(C)(=O)=O)c2F)n1 [encorafenib] .
Result: -2.56

----------
Test System: panel of 255 wild-type kinases (Homo sapiens)
Assay Procedure: Kinase panel profiling at 1 µmol/L (MSA or IMAP), percentage inhibition
Type: biochemical
Recorded Conditions: kinase EEF2K; 1 µmol/L single concentration; read-out: %-inhibition at 1 µmol/L, EEF2K
Readout Kind: inhibition at 1 µM (%)
Number only, in %; omit the unit.

These solved cases illustrate the format of a correct answer.
Query: Entry Cc1nc(NC(=O)N2CCC[C@H]2C(N)=O)sc1-c1ccnc(C(C)(C)C(F)(F)F)c1 has what inhibition at 1 µM?
Result: 2

Query: Here is the next molecule: C[C@H]1Oc2cc(cnc2N)-c2c(nn(C)c2C#N)CN(C)C(=O)c2ccc(F)cc21
Result: -1.73

Query: What about CN1CCN(c2ccc(C(=O)Nc3n[nH]c4ccc(Cc5cc(F)cc(F)c5)cc34)c(NC3CCOCC3)c2)CC1 ?
Result: 3.25

Query: # iterate: CCn1c(=O)c(-c2cc(NC(=O)Nc3ccccc3)c(F)cc2Br)cc2cnc(NC)cc21
Result: -2

Query: Next record, please: COc1cc2ncnc(Nc3ccc(F)c(Cl)c3)c2cc1NC(=O)/C=C/CN1CCCCC1
Result: 0

Continuing:
Query: State the recorded inhibition at 1 µM for this entry: C[C@H](Nc1ncnc2nc[nH]c12)c1cc2cccc(Cl)c2c(=O)n1-c1ccccc1
Result: 0.762

Query: Try the molecule COc1ccc(CN2C3CC2CN(c2ccc(-c4cc(OCC(C)(C)O)cn5ncc(C#N)c45)cn2)C3)cn1
Result: -1.54

Query: Field entry: C=CC(=O)N1CCC([C@@H]2CCNc3c(C(N)=O)c(-c4ccc(Oc5ccccc5)cc4)nn32)CC1
Result: 0.514

----------
Test System: EGFR (Homo sapiens)
Construct: purchased Carna Biosciences (only by web pointer)
Sequence (P00533 25-1210): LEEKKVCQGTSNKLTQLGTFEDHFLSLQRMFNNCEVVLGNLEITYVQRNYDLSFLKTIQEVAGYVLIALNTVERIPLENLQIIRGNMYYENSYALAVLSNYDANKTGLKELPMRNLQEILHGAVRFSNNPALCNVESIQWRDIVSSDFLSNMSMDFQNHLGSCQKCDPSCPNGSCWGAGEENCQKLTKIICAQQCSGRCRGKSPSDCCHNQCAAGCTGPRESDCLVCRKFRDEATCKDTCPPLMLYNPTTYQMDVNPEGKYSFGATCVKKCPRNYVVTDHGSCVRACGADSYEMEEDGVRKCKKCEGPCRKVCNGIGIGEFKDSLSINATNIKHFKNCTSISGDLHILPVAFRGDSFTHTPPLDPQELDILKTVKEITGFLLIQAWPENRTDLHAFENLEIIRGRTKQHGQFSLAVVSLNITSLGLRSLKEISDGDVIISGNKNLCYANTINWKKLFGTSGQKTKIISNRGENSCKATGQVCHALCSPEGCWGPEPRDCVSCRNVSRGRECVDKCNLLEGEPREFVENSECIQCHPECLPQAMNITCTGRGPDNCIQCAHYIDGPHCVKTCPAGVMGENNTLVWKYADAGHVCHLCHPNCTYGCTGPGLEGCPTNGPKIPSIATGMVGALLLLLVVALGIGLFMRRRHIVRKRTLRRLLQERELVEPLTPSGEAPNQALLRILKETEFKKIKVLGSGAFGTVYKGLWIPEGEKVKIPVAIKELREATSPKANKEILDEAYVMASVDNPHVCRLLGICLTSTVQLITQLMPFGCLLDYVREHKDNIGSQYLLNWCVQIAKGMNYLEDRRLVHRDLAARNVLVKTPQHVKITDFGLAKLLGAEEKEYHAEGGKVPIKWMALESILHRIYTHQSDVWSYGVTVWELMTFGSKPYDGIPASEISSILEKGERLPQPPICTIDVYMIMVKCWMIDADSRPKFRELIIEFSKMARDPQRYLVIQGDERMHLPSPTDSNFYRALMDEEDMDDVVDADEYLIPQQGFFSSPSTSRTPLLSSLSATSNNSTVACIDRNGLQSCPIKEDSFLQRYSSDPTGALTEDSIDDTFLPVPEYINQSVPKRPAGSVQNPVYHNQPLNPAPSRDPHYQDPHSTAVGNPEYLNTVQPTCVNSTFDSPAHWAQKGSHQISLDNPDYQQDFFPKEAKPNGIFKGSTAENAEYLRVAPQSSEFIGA
Assay Procedure: Biochemical kinase assay (MSA), IC50
Readout Kind: IC50 (nM)
Report only the number, with the unit nM understood.

Query: Please give the measured IC50 for this compound: Cc1cc(Nc2ncnc3ccc(NC4=NC(C)(C)CO4)cc23)ccc1Oc1ccn2ncnc2c1
Result: 6.7

----------
Test System: panel of 255 wild-type kinases (Homo sapiens)
Assay Procedure: Kinase panel profiling at 1 µmol/L (MSA or IMAP), percentage inhibition
Type: biochemical
Recorded Conditions: kinase EPHA4; 1 µmol/L single concentration; read-out: %-inhibition at 1 µmol/L, EPHA4
Readout Kind: inhibition at 1 µM (%)
Your answer is read as %, so omit the unit and give the number.

# count of solved cases: 3
Query: Which inhibition at 1 µM is reported for this compound? Cn1cnc2c(F)c(Nc3ccc(Br)cc3Cl)c(C(=O)NOCCO)cc21
Result: -2.57

Query: Same for CCn1c(=O)c(-c2cc(NC(=O)Nc3ccccc3)c(F)cc2Br)cc2cnc(NC)cc21
Result: 101

Query: Cn1cnc2c(F)c(Nc3ccc(Br)cc3F)c(C(=O)NOCCO)cc21 , same question.
Result: 7.56

Please look at the following compound next.
Query: What measured inhibition at 1 µM goes with CO[C@]1(C(=O)N[C@@H](C)c2ccc(-n3cc(F)cn3)nc2)CC[C@H](c2nc(C)cc(Nc3cc(C)[nH]n3)n2)CC1 ?
Result: 52

----------
Test System: panel of 255 wild-type kinases (Homo sapiens, UniProt Q9NWZ3)
Sequence (Q9NWZ3 whole entry): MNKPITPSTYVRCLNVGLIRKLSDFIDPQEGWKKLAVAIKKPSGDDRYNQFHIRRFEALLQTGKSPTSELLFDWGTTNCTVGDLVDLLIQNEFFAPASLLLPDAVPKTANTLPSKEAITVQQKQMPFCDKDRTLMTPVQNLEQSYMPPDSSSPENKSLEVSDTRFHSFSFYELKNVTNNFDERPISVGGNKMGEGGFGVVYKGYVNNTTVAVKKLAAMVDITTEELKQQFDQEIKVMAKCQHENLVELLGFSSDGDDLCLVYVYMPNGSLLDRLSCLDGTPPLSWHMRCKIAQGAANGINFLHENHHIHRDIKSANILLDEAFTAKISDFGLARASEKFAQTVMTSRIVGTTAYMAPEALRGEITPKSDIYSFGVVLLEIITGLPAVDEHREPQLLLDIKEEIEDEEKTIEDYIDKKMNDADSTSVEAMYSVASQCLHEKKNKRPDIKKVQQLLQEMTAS
Assay Procedure: Kinase panel profiling at 1 µmol/L (MSA or IMAP), percentage inhibition
Format: biochemical
Recorded Conditions: kinase IRAK4; 1 µmol/L single concentration; read-out: %-inhibition at 1 µmol/L, IRAK4
Readout Kind: inhibition at 1 µM (%)
Write the value in % as a bare number.

Below: 6 molecules and their reported inhibition at 1 µM.
Query: For Cn1cnc2c(F)c(Nc3ccc(Br)cc3F)c(C(=O)NOCCO)cc21 , what is its reported inhibition at 1 µM?
Result: 1.26

Query: One more molecule: COc1cc2ncnc(Nc3ccc(F)c(Cl)c3)c2cc1NC(=O)/C=C/CN1CCCCC1
Result: 19

Query: Can you check COC(=O)N[C@@H](C)CNc1nccc(-c2cn(C(C)C)nc2-c2cc(Cl)cc(NS(C)(=O)=O)c2F)n1 next?
Result: -1.14

Query: One more molecule: CCc1nc(C(N)=O)c(Nc2ccc(N3CCC(N4CCN(C)CC4)CC3)c(OC)c2)nc1NC1CCOCC1
Result: 79

Query: Another: O=C(Nc1cnn2ccc(N3CCC[C@@H]3c3cc(F)ccc3F)nc12)N1CC[C@H](O)C1
Result: 1.67

Query: Field entry: C=CC(=O)N1CCC([C@@H]2CCNc3c(C(N)=O)c(-c4ccc(Oc5ccccc5)cc4)nn32)CC1
Result: 1

Others:
Query: Query (molecule): CCN1CCN(c2ccc(Nc3cc(N(C)C(=O)Nc4c(Cl)c(OC)cc(OC)c4Cl)ncn3)cc2)CC1 ; field requested: inhibition at 1 µM
Result: -1.22

Query: Could you do the same for FC(F)(F)c1ccc(CNc2ccc(Cc3c[nH]c4ncc(Cl)cc34)cn2)cn1 , please?
Result: 37

----------
Test System: panel of 255 wild-type kinases (Homo sapiens)
Assay Procedure: Kinase panel profiling at 1 µmol/L (MSA or IMAP), percentage inhibition
Format: biochemical
Recorded Conditions: kinase PIM2; 1 µmol/L single concentration; read-out: %-inhibition at 1 µmol/L, PIM2
Readout Kind: inhibition at 1 µM (%)
State just the number; it will be interpreted in %.

Query: Data request, read-out inhibition at 1 µM, for FC(F)(F)c1ccc(CNc2ccc(Cc3c[nH]c4ncc(Cl)cc34)cn2)cn1
Result: -2.72

Query: And then CO[C@]1(C(=O)N[C@@H](C)c2ccc(-n3cc(F)cn3)nc2)CC[C@H](c2nc(C)cc(Nc3cc(C)[nH]n3)n2)CC1 , what is it?
Result: -4

Query: What about CN1CCN(c2ccc(C(=O)Nc3n[nH]c4ccc(Cc5cc(F)cc(F)c5)cc34)c(NC3CCOCC3)c2)CC1 ?
Result: -7.56

Query: Now consider CCN1C(=O)N(c2c(F)c(OC)cc(OC)c2F)Cc2cnc3[nH]c(CN4CCOCC4)cc3c21 .
Result: -6

Continuing:
Query: Quick one: inhibition at 1 µM of C=CC(=O)N1CCC([C@@H]2CCNc3c(C(N)=O)c(-c4ccc(Oc5ccccc5)cc4)nn32)CC1 ?
Result: -7

Query: Thanks! And Cc1nc(NC(=O)N2CCC[C@H]2C(N)=O)sc1-c1ccnc(C(C)(C)C(F)(F)F)c1 ?
Result: -6.4
